# Tested on: Malme-3M
# Assay method text: NCI tumour cell line growth inhibition, 48 h
Activity calls are given as the source filed them. Cut-off read from the data, not from the text of the source: active = GI50 up to about 1.1 µM and inactive = higher.
Permitted responses: active, inactive

Reference set, count: 10
COC(=O)C(Cc1ccccc1)NP(=O)(O)OCC1OC(n2cc(F)c(=O)[nH]c2=O)CC1O (stereo not given) :: inactive
CC(C)(C)NC(=O)[C@H]1CC[C@H]2[C@@H]3CC=C4NC(=O)CC[C@]4(C)[C@H]3CC[C@]12C :: inactive
COc1ccc(CNc2nc3cc(C(F)(F)F)ccc3nc2-c2ccccc2)cc1OC :: inactive
COc1ccc(-n2/c(=N/C(=S)N(C)C)ss/c2=N\C(=S)N(C)C)cc1 :: inactive
O=C(O)C(CS)Nc1c2ccccc2nc2ccccc12 (stereo not given) :: inactive
CC(=O)OCCCC(NC(=O)OC(C)(C)C)C(=O)NC(CCCOC(C)=O)C(=O)NC(Cc1ccc([N+](=O)[O-])cc1)C(=O)NCC(=O)OCc1ccccc1 (stereo not given) :: inactive
O=C1CCCC(O)=C1SC1=C(O)CCCC1=O :: inactive
Cc1ccc(/C=C2\CCC/C(=C\c3ccc(O)c(CN4CCCCC4)c3)C2=O)cc1 :: inactive
CCOC(=O)C(C)(C)Oc1ccc(/C=C/C(=O)c2ccc(Cl)cc2)cc1 :: inactive
CN(C)c1ncnc2c1ncn2CCn1cnc2c(N(C)C)ncnc21 :: inactive

Incoming: Please state the recorded outcome for this compound: `O=C1C=CC(=O)c2c(O)c(N(CCCl)CCCl)c(Cl)c(O)c21`
Outgoing: inactive

Incoming: Another: `COc1ccc([C@H]2CC(=O)C[C@H](c3ccc(OC)cc3OC)C23C(=O)c2ccccc2C3=O)c(OC)c1`
Outgoing: inactive

Incoming: Another: `CCOc1ccccc1NC(=O)CCC(=O)NN`
Outgoing: inactive

Incoming: Another: `CC[C@H]1C=CCC[C@@]2(C[C@@H]3CC[C@@H]4[C@H](C(=O)OCCCCCCCCCCCCCCCC(=O)N(CCCNC(C)=O)C[C@H](CCNC(C)=O)OC(C)=O)[C@]5(CCC[C@@H](C)O5)NC(=[N+]34)N2)O1`
Outgoing: active

Incoming: Another: COC(COC(=O)N1CCN(C=O)CC1)C1=C(N2CC2)C(=O)C(C)=C(N2CC2)C1=O (stereo not given)
Outgoing: active

Incoming: Another: NC(=O)N/N=C1\CC2C3CC4C2C4C13 (stereo not given)
Outgoing: inactive

Incoming: Another: CN(C)CCNC(=O)c1cccc2c(NC(CCCNC(=N)N)C(=O)O)c3ccccc3[n+](C)c12 (stereo not given)
Outgoing: inactive

Incoming: Another: `CCCCCCCCCCCC(=O)OC[C@H](C[As](=O)(O)O)OC(=O)CCCCCCCCCCC`
Outgoing: inactive

Incoming: Another: `O=C(/C=C\c1ccc([N+](=O)[O-])cc1)c1ccccc(=O)c1O`
Outgoing: active

Incoming: Another: CCP(=O)(OC)C1=CCN(C(=O)OCC[Si](C)(C)C)CC1 (stereo not given)
Outgoing: inactive

---

# Tested on: EKVX
# Assay method text: NCI tumour cell line growth inhibition, 48 h
Calls of active or inactive are those of the source. Rule as the data show it: active = GI50 up to about 1.1 µM and inactive = higher.
Endpoint: GI50

Solved entries (count: 8):
Cc1ccc(/N=N/C(=N\c2ccc(Cl)cc2)c2ccc(N(CCC#N)CCC#N)cc2)cc1 :: 22.9 µM (inactive)
COc1cc2nc(Nc3cccc(Br)c3)nc(Nc3cccc(Br)c3)c2cc1OC :: 19.1 µM (inactive)
CCn1cc(C(=O)O)c(=O)c2cc(F)c(N3CCN(CN4C(=O)/C(=N\c5ncc(Cc6cc(OC)c(OC)c(OC)c6)c(N)n5)c5cc(Cl)ccc54)CC3)cc21 :: > 100 µM (inactive)
CN(C)c1ncnc2c1ncn2CCn1cnc2c(N(C)C)ncnc21 :: > 100 µM (inactive)
O=C(CCC/C(CC(=O)c1ccc(Br)cc1)=N\O)Nc1ccccc1 :: > 100 µM (inactive)
COc1ccc(/N=C2/SC(=N/N=c3\sc4ccccc4n3C)S/C2=N/c2ccc(OC)cc2)cc1 :: > 100 µM (inactive)
CCCCOC(=O)C(=O)C(CC(CC)C(=O)c1ccccc1)C(=O)C=C(C)C (configuration not stated) :: > 100 µM (inactive)
CC(=O)NC(CCCCN(Cc1ccccc1)C(=O)N(CCCl)N=O)C(=O)NCc1ccccc1 (configuration not stated) :: 61.9 µM (inactive)

Moving on to the next compound.
Incoming: What value of GI50 has been recorded for this entry: COc1ccc(N2C(=O)C3c4[nH]c5ccccc5c4C4CCC(C(C)(C)C)CC4C3C2=O)c(C)c1 (configuration not stated)
Outgoing: > 100 µM (inactive)

---

Documented GI50 across a set of molecules
# System: A549
# Assay method text: NCI tumour cell line growth inhibition, 48 h
Active and inactive are the calls of the source. Rule as the data show it: active = GI50 up to about 1.1 µM and inactive = higher.

Solved entries (count: 3):
NC(=O)Nc1ccc(S(=O)(=O)Nc2ccc(S(N)(=O)=O)cc2)cc1 :: > 100 µM (inactive)
Cc1cc(C)c2c(n1)S(=O)(=O)N(CCCN1CCN(c3cccc(C(F)(F)F)c3)CC1)C(C(=O)c1ccc(Cl)cc1)=C2O :: 2.74 µM (inactive)
COc1cc(S(=O)(=O)Nc2ccc(-c3csc(/N=C\c4ccccc4)n3)cc2)ccc1Cl :: > 100 µM (inactive)

Incoming: What value of GI50 has been recorded for this entry: CC1(c2ccc(Cl)cc2)C2C(=O)NC(=O)C1C(=O)NC2=O (centres undefined)
Outgoing: > 100 µM (inactive)

Incoming: Another: `N#CCCN(CCCN(C(=O)Nc1ccccc1)c1ccccc1)C(=O)Nc1ccccc1`
Outgoing: 78.9 µM (inactive)

Incoming: Another: `Oc1cccc(-c2ccc3c4c2O[C@H]2c5[nH]c6ccccc6c5C[C@@]5(O)[C@@H](C3)N(CC3CC3)CC[C@]425)c1`
Outgoing: 1.78 µM (inactive)

Incoming: Another: O=C(Nc1ccccc1)C(=O)C(C(=O)c1ccccc1F)C1OC(=O)c2ccccc21 (centres undefined)
Outgoing: 37.8 µM (inactive)

Incoming: Another: O=CC1CCCc2ccccc21 (centres undefined)
Outgoing: > 100 µM (inactive)

Incoming: Another: `CC(=O)N(O)[C@@H]1CC[C@H](n2cnc3c(N)ncnc32)C1`
Outgoing: > 100 µM (inactive)

---

# Tested on: SF-268
# Assay method text: NCI tumour cell line growth inhibition, 48 h
Activity calls are given as the source filed them. Rule as the data show it: active = GI50 up to about 1.1 µM and inactive = higher.
Permitted responses: 1 (yes) = active, 0 (no) = inactive

Reference set, count: 5
Brc1ccc2c3c1[C@@H]1O[C@@H]1c1cccc(c1-3)[C@@H]1O[C@H]21 :: 0 (no)
Cc1cc(C)c2c(n1)S(=O)(=O)N(CCCN1CCN(c3cccc(C(F)(F)F)c3)CC1)C(C(=O)c1ccc(Cl)cc1)=C2O :: 0 (no)
CCN(CC)CC(=O)NC1c2ccccc2Oc2ccccc21 :: 0 (no)
COc1cc(/C=C2/SC(c3ccccc3)N(c3cccc(Cl)c3)C2=O)cc(OC)c1OC (stereo unspecified) :: 0 (no)
OC1OC2COC(c3ccccc3)OC2C(O)C1O (stereo unspecified) :: 0 (no)

Incoming: Please state the recorded outcome for this compound: `CC(C)(C)C(=O)/C=C/c1ccc(Oc2ccccc2)cc1`
Outgoing: 0 (no)

Incoming: Another: `O=C(c1cccc(OCc2ccccc2)c1OCc1ccccc1)N1CCSC1=S`
Outgoing: 0 (no)

Incoming: Another: Ic1ncnc2c1ncn2C1CCCO1 (stereo unspecified)
Outgoing: 0 (no)

Incoming: Another: CC[C@@]1(O)C(=O)OCc2c1cc1n(c2=O)Cc2c-1nc1ccccc1c2/C=N\NC(=O)C(N)CS (stereo partly specified)
Outgoing: 1 (yes)

Incoming: Another: C=C1C(=O)OC2C1CCC(C)C1C=CC(=O)C12C (stereo unspecified)
Outgoing: 0 (no)

---

Documented GI50 across a set of compounds
# Test system: SNB-75
# Assay method text: NCI tumour cell line growth inhibition, 48 h
The source made the active and inactive calls. Cut-off read from the data, not from the text of the source: active = GI50 up to about 1.1 µM and inactive = higher.

Solved entries (count: 3):
COc1ccc(-n2/c(=N/C(=S)N(C)C)ss/c2=N\C(=S)N(C)C)cc1 :: 22.8 µM (inactive)
CCOC(=O)Cc1csc2[n+]1C(=O)/C(=C\c1cccc(Cl)c1Cl)S2 :: 23.8 µM (inactive)
Oc1cc(-c2ccc(F)cc2)nc2ncccc12 :: 20.7 µM (inactive)

Incoming: What value of GI50 has been recorded for this entry: `COc1ccc(/C=C/COC(C)=O)cc1OC`
Outgoing: > 100 µM (inactive)

Incoming: Another: CC(=O)OCC(C)(COC(C)=O)N1C(=O)C2C3c4ccccc4C(c4ccccc43)C2C1=O (configuration not stated)
Outgoing: 49.7 µM (inactive)

Incoming: Another: `C1CSCC2(COC2)CS1`
Outgoing: > 100 µM (inactive)

Incoming: Another: `COc1cc2nc(Nc3cccc(Br)c3)nc(Nc3cccc(Br)c3)c2cc1OC`
Outgoing: 17.3 µM (inactive)

Incoming: Another: CCCCOC(=O)C(=O)C(CC(CC)C(=O)c1ccccc1)C(=O)C=C(C)C (configuration not stated)
Outgoing: > 100 µM (inactive)

Incoming: Another: CCCCCCCCCCCCCCCCCCNc1ccn(C2OC(COP(=O)(O)OCC3OC(n4cc(C)c(=O)[nH]c4=O)CC3O)C(O)C2O)c(=O)n1 (configuration not stated)
Outgoing: 17.5 µM (inactive)

Incoming: Another: `COc1cccc(-n2nnc3c(N)nc(N)nc32)c1`
Outgoing: 15.7 µM (inactive)

Incoming: Another: N=c1ccn2c(n1)OC1C(OP(=O)(O)O)C(CO)OC12 (configuration not stated)
Outgoing: > 88.3 µM (inactive)

Incoming: Another: CC(C)CCCCCCCCCCCCC(=O)NCC(=O)NC1C(C)OC(Nc2ncnc3c2ncn3C)C(O)C1O (configuration not stated)
Outgoing: 2.33 µM (inactive)

Incoming: Another: ClC1=NN=C(c2c[nH]c3ccccc23)CC1NCc1ccccc1 (configuration not stated)
Outgoing: > 100 µM (inactive)

Incoming: Another: C1CC[C@H]2SSC3CCCC[C@H]3SSC2C1 (some centres not stated)
Outgoing: > 100 µM (inactive)

Incoming: Another: O=C1CCC2(CC1)Cc1ccccc1C2O (configuration not stated)
Outgoing: < 0.01 µM (active)

Incoming: Another: COc1cc(C2SCC(=O)N2c2ccc(NC(=O)c3ccc(N4C(=O)CSC4c4cc(OC)c(OC)c(OC)c4)cc3)cc2)cc(OC)c1OC (configuration not stated)
Outgoing: 22.2 µM (inactive)

Incoming: Another: `Clc1cc(Br)c2c3c(c(Br)cc(Cl)c13)C(Br)=C2Br`
Outgoing: 13.8 µM (inactive)

Incoming: Another: N=C(N)NCCCC(Nc1c2ccccc2[n+]([O-])c2ccccc12)C(=O)O (configuration not stated)
Outgoing: 34.8 µM (inactive)

Incoming: Another: `COc1ccc(/N=C2/SC(=N/N=c3\sc4ccccc4n3C)S/C2=N/c2ccc(OC)cc2)cc1`
Outgoing: 24.6 µM (inactive)

Incoming: Another: `Cc1cc(Cl)ccc1NC(=O)C(=O)Cc1nc2ccc(C(=O)c3ccccc3)cc2nc1O`
Outgoing: > 100 µM (inactive)

Incoming: Another: `O=C1c2ccccc2-c2c1c1ccccc1c(=O)n2-c1ccccc1`
Outgoing: 13.1 µM (inactive)

Incoming: Another: `CN(C)CCOc1ccc(I)cc1Cc1ccccc1`
Outgoing: 1.52 µM (inactive)
